Recorded values, source patent US20230151068A1.

# Experimental target: biotinylated His-Avi-TEAD (194-411) (UniProt P28347)
# Test: SSM screen, enrichment after two rounds of sorting
// assign label 1 if enrichment score falls strictly below -0.6, else label 0 (ties count as label 0)

Some entries whose results are on file:
{"columns": ["Binder", "Group label"],
 "data": [
  ["GSPDEKIERAKECCKKGDIQCCLRYFEESGDPNVMLICLFCP (designed binder) [Y04K variant of SEQ ID NO: 1]", "label 1"],
  ["GSPDEYIERAKECCSKGDIQCCLRYFEESGDPNVMLICLFCP (designed binder) [K13S variant of SEQ ID NO: 1]", "label 0"],
  ["GSPDGYIERAKECCKKGDIQCCLRYFEESGDPNVMLICLFCP (designed binder) [E03G variant of SEQ ID NO: 1]", "label 1"],
  ["GSPDEYIMRAKECCKKGDIQCCLRYFEESGDPNVMLICLFCP (designed binder) [E06M variant of SEQ ID NO: 1]", "label 1"],
  ["GSPDEYIERAKECCHKGDIQCCLRYFEESGDPNVMLICLFCP (designed binder) [K13H variant of SEQ ID NO: 1]", "label 0"]
]}

Say whether its enrichment score is strictly beneath -0.6. Entry: GSSDEYIERAKECCKKGDIQCCLRYFEESGDPNVMLICLFCP (designed binder) [P01S variant of SEQ ID NO: 1]
label 0

Say whether its enrichment score is strictly beneath -0.6. Entry: GSPDEYIENAKECCKKGDIQCCLRYFEESGDPNVMLICLFCP (designed binder) [R07N variant of SEQ ID NO: 1]
label 0

Say whether its enrichment score is strictly beneath -0.6. Entry: GSPDEYIERAAECCKKGDIQCCLRYFEESGDPNVMLICLFCP (designed binder) [K09A variant of SEQ ID NO: 1]
label 1
